Target: Microtubule-associated protein tau (Homo sapiens)
Test: qHTS for Inhibitors of Tau Fibril Formation, Fluorescence Polarization; also: nearly all actives have a fitted effect of over 55% in size
Settings: K18 P301L tau heparin fibrillization, Alexa594 FP, 6 h; series mostly up to 57.7 µM
Among all 280,000 compounds or so, about 1,100 (0.39%) were called active. Another 7% or so got no clear call; they are omitted. Calls follow the shape of the dose curve; as a rule, active = well fitted inhibition curve with a large enough effect; inconclusive = small, poorly fitted or top-dose-only effect, or effect the other way; inactive = flat fitted curve, though single readings scatter. Only a selection was taken, and actives are over-represented in it overall.
Classes used: active, inactive

>  <COMPOUND STRUCTURE>
Brc1ccc(CSc2ccc(-c3ccco3)nn2)cc1

>  <ANSWER LABEL>
inactive

$$$$
>  <COMPOUND STRUCTURE>
Cc1ccc(OCCSc2nc3ccc(NC(=O)COc4ccc(C)cc4)cc3s2)cc1

>  <ANSWER LABEL>
inactive

$$$$
>  <COMPOUND STRUCTURE>
CC(=O)Nc1ccc2nc(SCCOc3cc(C)cc(C)c3)sc2c1

>  <ANSWER LABEL>
active

$$$$
>  <COMPOUND STRUCTURE>
O=C(Nc1nnc(SCc2ccccc2)s1)c1ccco1

>  <ANSWER LABEL>
inactive

$$$$
>  <COMPOUND STRUCTURE>
CCOc1ccc2nc(Nc3nc4ccc(NC(C)=O)cc4s3)sc2c1

>  <ANSWER LABEL>
inactive

$$$$
>  <COMPOUND STRUCTURE>
CN(C)N=Nc1ccc2nc[nH]c2c1

>  <ANSWER LABEL>
active

$$$$
